Form field: fluorescence, percent of control (lower = inhibition) (one value per entry).
Biological target: Cell division control protein 42 homolog (Homo sapiens) (UniProt P60953)
Sequence (P60953 whole entry, looked up): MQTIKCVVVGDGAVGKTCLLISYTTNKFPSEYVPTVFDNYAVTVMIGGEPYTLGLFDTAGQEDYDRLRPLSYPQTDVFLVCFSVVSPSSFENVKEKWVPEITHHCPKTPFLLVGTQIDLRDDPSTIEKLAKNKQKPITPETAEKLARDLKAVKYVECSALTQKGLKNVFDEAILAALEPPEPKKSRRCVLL
Experiment: inhibition of fluorescent GTP binding to wildtype Cdc42 – biochemical, multiplex bead flow cytometry, Bodipy-FL-GTP, dose response (AID 1334)
Settings: bead-based flow cytometry, Bodipy-FL-GTP binding to GST-Cdc42; at 100 µM (top of the series) unless noted
Entries with a potency or affinity are not part of this list.
Respond with the bare value in %.

Illustrative cases are given below, each with its answer.
INSERT INTO measurements (smiles_representation, scale_unit, result_value) VALUES
  ('Cc1nonc1OCCNc1ccc([N+](=O)[O-])cc1[N+](=O)[O-]', '%', 50.3),
  ('COc1ccc(/C=N/n2c(N)c(S(=O)(=O)c3cccs3)c3nc4ccccc4nc32)cc1OC', '%', 37.1),
  ('CCOC(=O)CCCCC(=O)c1[nH]c(=O)[nH]c1CSc1nnc2c3cc(Br)ccc3n(C)c2n1', '%', 34.4),
  ('Cc1ccc(OCCn2cc(C(=O)O)c3ccccc32)cc1', '%', 45.4);

fluorescence, percent of control (lower = inhibition) reading for CCOc1cc(/C=N/NC(=O)CSc2cccc3cccnc23)ccc1O : 35.6

fluorescence, percent of control (lower = inhibition) reading for O=C(CSc1n[nH]c(=O)[nH]c1=O)N/N=C/c1ccccc1 : 49.5

fluorescence, percent of control (lower = inhibition) reading for Nc1nc(N)c2sc3nc4c(cc3c2n1)CCC4 : 89.1

fluorescence, percent of control (lower = inhibition) reading for O=C(O)c1ccccc1SCc1ccc2c(c1)OCO2 : 71

fluorescence, percent of control (lower = inhibition) reading for O=C(O)c1cc(N2N=C(C(F)(F)F)/C(=C/C=C/c3ccco3)C2=O)ccc1Cl : 22.4

fluorescence, percent of control (lower = inhibition) reading for Cc1cccc(Cc2c(C)nc3nc(SCC(=O)O)nn3c2C)c1 : 30.6

fluorescence, percent of control (lower = inhibition) reading for Cc1[nH]c2ccccc2c1C(=O)CNc1nccs1 : 50.6

###

Molecular target: Cell division control protein 42 homolog (Homo sapiens) (UniProt P60953)
Experiment: inhibition of fluorescent GTP binding to wildtype Cdc42 – biochemical, multiplex bead flow cytometry, Bodipy-FL-GTP, dose response (AID 1334)
Conditions: bead-based flow cytometry, Bodipy-FL-GTP binding to GST-Cdc42; at 100 µM (top of the series) unless noted
Measured potencies and affinities stand elsewhere.
Form field: fluorescence, percent of control (lower = inhibition) (one value per entry).
Respond with the bare value in %.

Illustrative cases are given below, each with its answer.
INSERT INTO assay_data (compound, result_value) VALUES
  ('CCOC(=O)Cn1nnnc1C(CC)N(Cc1cccs1)Cc1cc2ccc(OC)cc2[nH]c1=O (stereo not drawn)', 97.8),
  ('COc1ccc(C(=O)C2CCCN(C(=O)c3cc4nc(C)cc(C)n4n3)C2)cc1F (stereo not drawn)', 41.4),
  ('CCOc1ccc2nc(NC(=O)CSc3nc(-c4ccccc4)c(C#N)c(=O)[nH]3)sc2c1', 25.1),
  ('COc1cc2[nH]c(=S)nc(NC3CCCC3)c2cc1OC', 25.9),
  ('CCCn1cc(CN2CCCC(CNC(=O)c3ccc(F)cc3)C2)c(C)n1 (stereo not drawn)', 37.6);

fluorescence, percent of control (lower = inhibition) reading for CCCCCn1nc(C(=O)OCC(=O)c2c(N)n(C)c(=O)n(C)c2=O)c2ccccc2c1=O : 34

###

Form field: double positive events (one value per entry).
Assay: reduced mouse 2C T cell binding to pMHC/ICAM-1 vesicles – MLPCN validation set, flow cytometry, LFA-1/ICAM-1 modulator project, pilot screen (AID 2523)
Conditions: 2C mouse CD8+ T cells, at 7 µM, stronger effect = lower value; measured here: CD8+/vesicle+ event percentage
Respond with the bare value in %.

INSERT INTO results (compound, property_name, scale_unit, result_value) VALUES
  ('CN1C(C(=O)Nc2ccccn2)=C(O)c2ccccc2S1(=O)=O', 'double positive events', '%', 63.2),
  ('COc1ccc(-c2nc(NC(C)=O)sc2-c2ccc(OC)cc2)cc1', 'double positive events', '%', 65.9),
  ('CCCN(CCC)C(=O)C(CCC(=O)O)NC(=O)c1ccccc1 (configuration not stated)', 'double positive events', '%', 59.4),
  ('CCOC(=O)c1ccc(NC(=S)NCCc2ccccc2F)cc1', 'double positive events', '%', 68.7),
  ('Cc1oncc1C(=O)Nc1ccc(C(F)(F)F)cc1', 'double positive events', '%', 57.4);

double positive events reading for CN1CCN(C2=Nc3ccccc3Oc3ccc(Cl)cc32)CC1 : 61.6

double positive events reading for COc1ccc(-c2noc(-c3ccccc3-c3ccccc3)n2)cc1 : 56.5

double positive events reading for CCOC(=O)C1=C(C)N[C@@]2(O)c3ccccc3C(=O)[C@@]12O : 65.1

double positive events reading for CC(C)=CCC(C)(C)/C=N/NC(N)=O : 59.7

double positive events reading for COC(=O)CSc1nc2ccc(N)cc2s1 : 64.4

###

Biological target: AP-2 complex subunit beta (Homo sapiens)
Experiment: beta-arrestin/AP2 interaction blockers – biochemical, validation set, GST-AP2 beads, flow cytometry, pilot screen (AID 504541);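 also: AP2 carries R879A mutation and is captured from E. coli lysate; bead-bound FITC arrestin peptide fluorescence measuring arrestin peptide binding to AP2; 0% = DMSO wells and 100% = excess unlabeled arrestin peptide control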
Conditions: FITC arrestin peptide, at 10 µM, stronger effect = higher value, AP2 beta2 appendage fragment, R879A mutant
Form field: inhibition (one value per entry).
Respond with the bare value in %.

The measured inhibition that CC1(C)CC(=O)C(C2=NC(C)(C)Cc3ccccc32)=C(O)C1 showed for AP-2 complex subunit beta (Homo sapiens) is 17.9

The measured inhibition that CN1C(C(=O)Nc2ccccn2)=C(O)c2sccc2S1(=O)=O showed for AP-2 complex subunit beta (Homo sapiens) is 6.73

###

Form field: percent response of DMSO control (one value per entry).
Assay: TOR pathway RTG branch CIT2 reporter changes – S. cerevisiae, GFP fusion, multiplex flow cytometry, primary screen (AID 1870);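 also: barcoded CIT2-GFP strain pooled with four other GFP strains with rapamycin as positive control; median GFP fluorescence per well over plate mean of DMSO wells so 100% = DMSO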
Conditions: S. cerevisiae CIT2-GFP expression, 3 h, at 10 µM, stronger effect = higher value
Active and inactive are the calls of the source.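 How the source made its calls: active means percent response above a set limit, the screen-wide mean plus 3 SD (cut at about 130% in these data); inactive means the rest.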

Illustrative cases are given below, each with its answer.
INSERT INTO assay_data (compound, result_value) VALUES
  ('CC(=O)SC1CC2=CC(=O)CCC2(C)C2CCC3(C)C(CCC34CCC(=O)O4)C12 (stereo unspecified)', '107% (inactive)'),
  ('C[C@]12CCC(=O)C=C1CC[C@@H]1[C@@H]2[C@@H](O)C[C@@]2(C)[C@H]1CC[C@]2(O)C(=O)CO', '111% (inactive)'),
  ('COC(=O)C1[C@H]2C(=O)N(Cc3cccs3)C[C@]23C=C[C@H]1O3 (stereo partly specified)', '105% (inactive)'),
  ('CC1CCCC(C)N1NC(=O)c1ccc(Cl)c(S(N)(=O)=O)c1 (stereo unspecified)', '91.3% (inactive)'),
  ('OC12CCCCC1C(c1ccc3c(c1)OCO3)N(Cc1cccc(F)c1)CC2 (stereo unspecified)', '113% (inactive)');

percent response of DMSO control reading for C[N+](C)(C)CCCCCCCCCC[N+](C)(C)C : 103% (inactive)

percent response of DMSO control reading for COC(=O)C1=C(C)NC(C)=C([N+](=O)[O-])C1c1ccccc1C(F)(F)F (stereo unspecified) : 98.6% (inactive)

percent response of DMSO control reading for NC(N)=N/N=C/c1cccc(Cl)c1Cl : 98.6% (inactive)

percent response of DMSO control reading for Cc1ccsc1C1NC(=O)c2ccccc2N1 (stereo unspecified) : 94.8% (inactive)

percent response of DMSO control reading for COCCOC(=O)C1=C(N)OC2=C(C(=O)CCC2)C1c1cccnc1 (stereo unspecified) : 100% (inactive)

percent response of DMSO control reading for CC(C)C(CCN1C(=O)CCC1=O)C1CCOC(C)(C)C1 (stereo unspecified) : 100% (inactive)

###

Test: AML differentiation inducers, ER-HoxA9 marrow cells – cell-based, GFP/MAC1 double positive, flow cytometry, validation set, primary screen (AID 588685);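 also: compound exposure lasts four days before antibody staining and flow analysis; 0% = DMSO wells and 100% = 5 µM fulvestrant positive control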
Details: stronger effect = higher value, normalized: vehicle 0, fulvestrant 100
Active and inactive are the calls of the source.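 Rule for the calls: active = differentiation response of at least 50%, scaled between solvent and reference control, from cells with both markers; inactive = the rest.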
Form field: differentiation response (one value per entry).

INSERT INTO measurements (compound, property_name, result_value) VALUES
  ('C=C(C)[C@@H]1CC=C(CN2CCC(N3CCC(C(=O)N4CCCC4)CC3)CC2)CC1', 'differentiation response', '6.11% (inactive)'),
  ('COC(=O)C1=NN(C(=O)c2cccc(Br)c2)C(O)(c2ccc(Cl)cc2)C1 (stereo not drawn)', 'differentiation response', '11% (inactive)'),
  ('CC(=O)O[C@H]1C[C@@]2(C)[C@@H](C[C@@H](O)[C@H]3[C@@]4(C)CC[C@@H](O)[C@@H](C)C4CC[C@@]32C)/C1=C(\CCC=C(C)C)C(=O)O (stereo partly drawn)', 'differentiation response', '-9.91% (inactive)'),
  ('O=C(N1CCCCC1)C1(c2ccccc2)CCOCC1', 'differentiation response', '-24.8% (inactive)'),
  ('COc1cc(CNCc2ccc(OC)c(OC)c2OC)cc(OC)c1', 'differentiation response', '-11.9% (inactive)');

differentiation response reading for CCN(CCCc1ccccc1)CCCc1ccccc1 : -9.91% (inactive)

differentiation response reading for Cc1ccc(OCCCCn2ccnc2C)c(C)c1 : 5.85% (inactive)

differentiation response reading for O=C(NO)c1ccccc1O : -13.3% (inactive)

differentiation response reading for CC1(C)CC(NCc2ccccc2)CCO1 (stereo not drawn) : -7.94% (inactive)

differentiation response reading for CSCCC(NC(C)=O)C(=O)Oc1ccc2c3c(c(=O)oc2c1)CCCC3 (stereo not drawn) : 0.24% (inactive)

differentiation response reading for CCc1cc2c(=O)c(-c3nc(C)cs3)coc2cc1OC(C)C(=O)NCCO (stereo not drawn) : -4.09% (inactive)

differentiation response reading for O=C(/C=C/c1ccccc1)NCC1(c2ccccc2)CCOCC1 : -15.2% (inactive)

differentiation response reading for O=C(CCCN1C(=O)/C(=C\c2cccc(Br)c2)SC1=S)Nc1cccnc1 : -12% (inactive)

differentiation response reading for N#C/C(=C\c1ccc(O)c(O)c1)C(=O)NCCCc1ccccc1 : 3.88% (inactive)

differentiation response reading for COc1ccc(NC(=S)N2CCN(CCN3C(=O)c4cccc5cccc(c45)C3=O)CC2)cc1 : 18% (inactive)

differentiation response reading for CC(C)COCC(CN(Cc1ccccc1)c1ccccc1)N1CCCC1 (stereo not drawn) : -0.82% (inactive)

differentiation response reading for O=C1OC(Nc2ccc3c(c2)OCO3)c2ccccc21 (stereo not drawn) : 21.8% (inactive)

differentiation response reading for CC(C)CC(NC(=O)c1cccc(Cl)c1)C(=O)O (stereo not drawn) : -5.6% (inactive)

differentiation response reading for NS(=O)(=O)c1cc2c(cc1Cl)NCNS2(=O)=O : -11.9% (inactive)
